B1: MATN2 (parent)
chain: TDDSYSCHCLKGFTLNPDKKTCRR

Variants of: B1
PROTOCOL NOTES: protein stability index of a GFP-peptide fusion (GPS, HEK-293T) (PSI 1-6); higher = more stable;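 also: lentivirally expressed fusions sorted by FACS into six bins by GFP to DsRed ratio, PSI derived from sequencing read proportions per bin multiplied by bin number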
SETTINGS: c terminus: a fixed tail appended
TEST READOUT: protein stability index
Provide a numeric answer; units are not to be included.

Identify protein stability index associated with the variant T14W 2.69

Identify protein stability index associated with the variant K19D 2.37

Identify protein stability index associated with the variant C22T 2.44

Identify protein stability index associated with the variant P17Q 2.14

Identify protein stability index associated with the variant R24F 2.5

Identify protein stability index associated with the variant S4H 2.66

Identify protein stability index associated with the variant L10P 3.56

Identify protein stability index associated with the variant G12H 2.91

Identify protein stability index associated with the variant C7E 4.61

Identify protein stability index associated with the variant T14K 2.16

Identify protein stability index associated with the variant N16I 2.89
